Test system: NCI-H1373 cells
EXPERIMENT DESCRIPTION: Inhibition on NCI-H1373 cell proliferation (Cell-Titer-Glo)
Format: cell-based
SETTINGS: Homo sapiens, 144 h; NCI-H1373 cells, incubation for 6 days, Cell-Titer-Glo; read-out: NCI-H1373 cell proliferation inhibition IC50
// IC50 lookup, one value per entry
READOUT TYPE: IC50

| MOLECULE | READOUT TYPE | RESULT VALUE |
| --- | --- | --- |
| CC(CCCNC(=O)c1ncc(-c2ncc(C(F)(F)F)cn2)cc1F)Nc1cn[nH]c(=O)c1C(F)(F)F (stereo not drawn) | IC50 | 300 to 1000 nM |
| CC(CCCNC(=O)c1ccc(-c2ncc(CC3CC3)s2)cc1)Nc1cn[nH]c(=O)c1C(F)(F)F (stereo not drawn) | IC50 | 1000 to 3000 nM |
| CO[C@H]1CCN(C(=O)[C@@H](CCCNC(=O)c2ccc(-c3ncc(C(F)(F)F)s3)cc2)Nc2cn[nH]c(=O)c2C(F)(F)F)C1 | IC50 | 300 to 1000 nM |
| CC(CCCNC(=O)c1ccc(-c2ncc(C(F)(F)F)s2)cc1)Nc1cn[nH]c(=O)c1C(F)(F)F (stereo not drawn) | IC50 | < 300 nM |
| O=C(NCCCC(Nc1cn[nH]c(=O)c1C(F)(F)F)C(=O)N1CCOCC1)c1ccc(-c2ncc(C(F)(F)F)s2)cc1 (stereo not drawn) | IC50 | 300 to 1000 nM |
| CC(CCCNC(=O)c1ccc(-c2nc(C(F)(F)F)no2)cc1)Nc1cn[nH]c(=O)c1C(F)(F)F (stereo not drawn) | IC50 | > 3000 nM |
| CC(CCCNC(=O)c1ccc(-c2cscn2)nc1)Nc1cn[nH]c(=O)c1C(F)(F)F (stereo not drawn) | IC50 | 300 to 1000 nM |
| CC(CCCNC(=O)c1ccc(-c2ccc(-c3cnco3)cn2)cc1)Nc1cn[nH]c(=O)c1C(F)(F)F (stereo not drawn) | IC50 | > 3000 nM |
| CC(CCCNC(=O)c1ccc(-c2ncc(C(F)(F)F)cn2)cc1O)Nc1cn[nH]c(=O)c1C(F)(F)F (stereo not drawn) | IC50 | 1000 to 3000 nM |
| CC#Cc1cnc(-c2ccc(C(=O)NCCCC(C)Nc3cn[nH]c(=O)c3C(F)(F)F)cc2)s1 (stereo not drawn) | IC50 | > 3000 nM |
| CC(CCCNC(=O)c1ccc(-c2ncc(C(F)(F)F)cn2)cc1)Nc1cn[nH]c(=O)c1C(F)(F)F (stereo not drawn) | IC50 | 300 to 1000 nM |
| CC(CCCNC(=O)c1cnc(-n2cc(C(F)(F)F)cn2)cn1)Nc1cn[nH]c(=O)c1C(F)(F)F (stereo not drawn) | IC50 | 300 to 1000 nM |
| CC(CCCNC(=O)c1ccc(-c2ncc(N3CC(F)C3)s2)cc1)Nc1cn[nH]c(=O)c1C(F)(F)F (stereo not drawn) | IC50 | > 3000 nM |
| CC(CCCNC(=O)c1ccc(-n2cncn2)c(F)c1)Nc1cn[nH]c(=O)c1C(F)(F)F (stereo not drawn) | IC50 | > 3000 nM |
| CC(CCCNC(=O)c1cnc(-c2ncc(C(F)(F)F)s2)c(F)c1)Nc1cn[nH]c(=O)c1C(F)(F)F (stereo not drawn) | IC50 | 300 to 1000 nM |

###

TESTED ON: PARP7 (Homo sapiens, UniProt Q7Z3E1)
Construct: purchased BPS 80527
Sequence (Q7Z3E1 1-657): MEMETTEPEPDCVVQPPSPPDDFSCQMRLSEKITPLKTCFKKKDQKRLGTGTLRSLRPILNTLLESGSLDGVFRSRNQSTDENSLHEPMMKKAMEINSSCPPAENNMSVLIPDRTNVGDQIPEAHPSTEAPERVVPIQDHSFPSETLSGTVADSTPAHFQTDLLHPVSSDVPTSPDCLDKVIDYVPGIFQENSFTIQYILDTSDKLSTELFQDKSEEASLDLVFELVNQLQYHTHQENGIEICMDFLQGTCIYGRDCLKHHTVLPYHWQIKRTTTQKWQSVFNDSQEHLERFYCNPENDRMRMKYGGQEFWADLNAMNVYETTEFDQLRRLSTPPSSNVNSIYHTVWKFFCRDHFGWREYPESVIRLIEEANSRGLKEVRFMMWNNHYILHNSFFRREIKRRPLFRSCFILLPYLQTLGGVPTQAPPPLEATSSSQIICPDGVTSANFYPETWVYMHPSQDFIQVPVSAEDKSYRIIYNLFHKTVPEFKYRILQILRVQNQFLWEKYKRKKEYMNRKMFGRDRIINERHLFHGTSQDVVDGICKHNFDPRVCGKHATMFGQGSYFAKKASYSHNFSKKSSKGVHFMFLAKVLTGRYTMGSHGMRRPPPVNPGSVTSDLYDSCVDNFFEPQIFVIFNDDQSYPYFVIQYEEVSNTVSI
EXPERIMENT DESCRIPTION: PARP7 in vitro enzyme activity inhibition (chemiluminescence assay, selectivity test)
Type: biochemical
SETTINGS: 6.25 nM of PARP7 solution, method of test example 1; read-out: PARP7 activity inhibition IC50
// IC50 lookup, one value per entry

| COMPOUND | IC50 |
| --- | --- |
| O=C(NCCCC(Nc1cn[nH]c(=O)c1C(F)(F)F)C(=O)NC1CCCOC1)c1ccc(-c2ncc(C(F)(F)F)s2)cc1 (stereo not shown) | < 3 nM |
| O=C(NCCC[C@@H](Nc1cn[nH]c(=O)c1C(F)(F)F)C(=O)N1CC[C@@H](F)C1)c1ccc(-c2ncc(C(F)(F)F)s2)cc1 | < 3 nM |
| O=C(NCCC[C@@H](Nc1cn[nH]c(=O)c1C(F)(F)F)C(=O)N1CC[C@H](F)C1)c1ccc(-c2ncc(C(F)(F)F)s2)cc1 | < 3 nM |
| N#C[C@@H]1CCN(C(=O)[C@@H](CCCNC(=O)c2ccc(-c3ncc(C(F)(F)F)s3)cc2)Nc2cn[nH]c(=O)c2C(F)(F)F)C1 | < 3 nM |
| CN(C(=O)[C@@H](CCCNC(=O)c1ccc(-c2ncc(C(F)(F)F)s2)cc1)Nc1cn[nH]c(=O)c1C(F)(F)F)C1CCC1 | 3 to 10 nM |
| CC(C)(C)NC(=O)[C@@H](CCCNC(=O)c1ccc(-c2ncc(C(F)(F)F)s2)cc1)Nc1cn[nH]c(=O)c1C(F)(F)F | < 3 nM |
| CO[C@H]1CCN(C(=O)[C@@H](CCCNC(=O)c2ccc(-c3ncc(C(F)(F)F)s3)cc2)Nc2cn[nH]c(=O)c2C(F)(F)F)C1 | < 3 nM |
| CC1(F)CN(C(=O)[C@@H](CCCNC(=O)c2ccc(-c3ncc(C(F)(F)F)s3)cc2)Nc2cn[nH]c(=O)c2C(F)(F)F)C1 | 3 to 10 nM |
| O=C(NCCCC(Nc1cn[nH]c(=O)c1C(F)(F)F)C(=O)N1CCCC1)c1cnc(-c2ncc(C(F)(F)F)cn2)cn1 (stereo not shown) | < 3 nM |
| CC1CN(C(=O)[C@@H](CCCNC(=O)c2ccc(-c3ncc(C(F)(F)F)s3)cc2)Nc2cn[nH]c(=O)c2C(F)(F)F)C1 | < 3 nM |
| N#CC1CCN(C(=O)[C@@H](CCCNC(=O)c2ccc(-c3ncc(C(F)(F)F)s3)cc2)Nc2cn[nH]c(=O)c2C(F)(F)F)CC1 | < 3 nM |
| Cc1c(CCC(=O)Nc2ccc(-c3ncc(C(F)(F)F)cn3)cc2)c[nH]c(=O)c1C(F)(F)F | < 3 nM |
| O=C(NCCCC(Nc1cn[nH]c(=O)c1C(F)(F)F)C(=O)N1CCOCC1)c1ccc(-c2ncc(C(F)(F)F)s2)cc1 (stereo not shown) | < 3 nM |

###

TESTED ON: PARP7 (Homo sapiens)
Construct: purchased BPS 80527
Sequence (Q7Z3E1 1-657): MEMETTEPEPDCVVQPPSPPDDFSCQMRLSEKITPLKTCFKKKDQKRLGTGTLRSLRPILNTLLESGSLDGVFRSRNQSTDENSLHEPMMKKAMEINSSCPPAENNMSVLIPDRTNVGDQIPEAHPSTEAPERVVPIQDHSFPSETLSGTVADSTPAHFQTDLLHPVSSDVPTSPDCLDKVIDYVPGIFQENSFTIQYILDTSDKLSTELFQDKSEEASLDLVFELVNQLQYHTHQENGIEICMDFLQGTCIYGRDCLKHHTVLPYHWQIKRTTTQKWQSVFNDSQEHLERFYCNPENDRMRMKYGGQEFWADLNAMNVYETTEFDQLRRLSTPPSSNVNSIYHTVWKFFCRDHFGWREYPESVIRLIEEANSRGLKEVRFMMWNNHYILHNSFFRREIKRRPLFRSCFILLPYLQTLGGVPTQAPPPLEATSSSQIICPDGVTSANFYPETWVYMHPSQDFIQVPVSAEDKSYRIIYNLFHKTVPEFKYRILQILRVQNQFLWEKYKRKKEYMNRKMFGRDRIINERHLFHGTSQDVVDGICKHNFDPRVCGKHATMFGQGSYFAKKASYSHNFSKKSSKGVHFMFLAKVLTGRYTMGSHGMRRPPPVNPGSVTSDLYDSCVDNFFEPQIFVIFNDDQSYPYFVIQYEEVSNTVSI
EXPERIMENT DESCRIPTION: PARP7 TR-FRET binding inhibition (displacement of probe RBN011147)
SETTINGS: TR-FRET, Biotin-labeled probe RBN011147; read-out: PARP7 binding inhibition IC50
// IC50 lookup, one value per entry

| COMPOUND | IC50 |
| --- | --- |
| CC(CCCNC(=O)c1ccc(-c2noc(C3CC3)n2)cc1)Nc1cn[nH]c(=O)c1C(F)(F)F (stereo not shown) | 10 to 30 nM |
| CC(CCCNC(=O)c1ccc(-c2ncc(CC3CCCC3)s2)cc1)Nc1cn[nH]c(=O)c1C(F)(F)F (stereo not shown) | < 10 nM |
| CC(CCCNC(=O)c1ncc(-c2ncc(C(F)(F)F)s2)cc1F)Nc1cn[nH]c(=O)c1C(F)(F)F (stereo not shown) | < 10 nM |
| CC(CCCNC(=O)c1ccc(-c2ncc(N3CCCCC3)s2)cc1)Nc1cn[nH]c(=O)c1C(F)(F)F (stereo not shown) | < 10 nM |
| COc1nc(-c2ccc(C(=O)NCCCC(C)Nc3cn[nH]c(=O)c3C(F)(F)F)cc2)cs1 (stereo not shown) | 30 to 100 nM |
| CC[C@@H]1CN(C(=O)[C@@H](CCCNC(=O)c2ccc(-c3ncc(C(F)(F)F)s3)cc2)Nc2cn[nH]c(=O)c2C(F)(F)F)CCO1 | 10 to 30 nM |
| CC(CCCn1ccc2cc(-c3ncc(C(F)(F)F)s3)cnc2c1=O)Nc1cn[nH]c(=O)c1C(F)(F)F (stereo not shown) | < 10 nM |
